# System: Aspergillus niger
# EXPERIMENT NOTES: Antifungal activity against Aspergillus niger by NCCLS broth microdilution method
# Assay type: functional
# CONDITIONS: Aspergillus niger; read-out: MIC90
Rule: measured MIC90 below 60 µg/mL gets Yes; anything equal to or greater than 60 µg/mL gets No.

MOLECULE | CATEGORY
CON=C1C2CC(C)CC1C(c1ccc(Cl)cc1)NC2c1ccc(Cl)cc1 (stereo unspecified) | No
CC12CCCC(/C1=N\O)C(c1cccc(Cl)c1)NC2c1cccc(Cl)c1 (stereo unspecified) | No
CON=C1C2CC(C)CC1C(c1cccc(Cl)c1)NC2c1cccc(Cl)c1 (stereo unspecified) | Yes
CC12CCCC(/C1=N\O)C(c1cccc(F)c1)NC2c1cccc(F)c1 (stereo unspecified) | No
CO/N=C1\C2CCCC1(C)C(c1ccc(C)cc1)NC2c1ccc(C)cc1 (stereo unspecified) | Yes
CO/N=C1\C2CCCC1(C)C(c1ccccc1OC)NC2c1ccccc1OC (stereo unspecified) | No
CO/N=C1\C2CCCC1(C)C(c1ccccc1)NC2c1ccccc1 (stereo unspecified) | No
CO/N=C1\C2CCCC1(C)C(c1cccc(OC)c1)NC2c1cccc(OC)c1 (stereo unspecified) | No
CC1CC2C(=NO)C(C1)C(c1ccc(F)cc1)NC2c1ccc(F)cc1 (stereo unspecified) | No
CC12CCCC(/C1=N\O)C(c1ccccc1F)NC2c1ccccc1F (stereo unspecified) | No
CC1CC2C(=NO)C(C1)C(c1ccc(Cl)cc1)NC2c1ccc(Cl)cc1 (stereo unspecified) | Yes
CO/N=C1\C2CCCC1(C)C(c1ccccc1Cl)NC2c1ccccc1Cl (stereo unspecified) | Yes
CC1CC2C(=NO)C(C1)C(c1cccc(Cl)c1)NC2c1cccc(Cl)c1 (stereo unspecified) | No
CC1CC2C(=NO)C(C1)C(c1cccc(F)c1)NC2c1cccc(F)c1 (stereo in doubt; 50a) | No
CO/N=C1\C2CCCC1(C)C(c1ccc(Cl)cc1)NC2c1ccc(Cl)cc1 (stereo unspecified) | Yes
CO/N=C1\C2CCCC1(C)C(c1ccccc1Br)NC2c1ccccc1Br (stereo unspecified) | Yes
OC(Cn1cncn1)(Cn1cncn1)c1ccc(F)cc1F [FLUCONAZOLE] | Yes
COc1cccc(C2NC(c3cccc(OC)c3)C3(C)CCCC2/C3=N\O)c1 (stereo unspecified) | No
CC12CCCC(/C1=N\O)C(c1ccccc1Cl)NC2c1ccccc1Cl (stereo unspecified) | Yes
CC12CCCC(/C1=N\O)C(c1ccc(F)cc1)NC2c1ccc(F)cc1 (stereo unspecified) | No
COc1ccc(C2NC(c3ccc(OC)cc3)C3(C)CCCC2/C3=N\O)cc1 (stereo unspecified) | No
